experiment: soluble on expression in E. coli; label from the status in PepcDB or PDB records
MEASUREMENT_KIND: soluble on expression in E. coli

- CHAIN: "MQLHEQIANISVTFNDIPRSDHSMTPTELCYFDDFATTLVVDSVLNFTTHKMSKKRRYLYQDEYRTARTVMKTFREQRDWTNAIYGLLTLRSVSHFLSKLPPNKLFEFRDHIVRFLNMFILDSGYTIQECKRYSQEGHQGAKLVSTGVWSRGDKIERLSGVVCLLSSEDEDSILAQEGSDFSVMYSTRKRCSTLWLGPGAYINHDCRPTCEFVSHGSTAHIRVLRDMVPGDEITCFYGSEFFGPNNIDCECCTCEKNMNGAFSYLRGNENAEPIISEKKTKYELRSRS"
  MEAS_VALUE: "not soluble"
- CHAIN: "VPITPLLHESVARFAATGADITTRAEPDLFVSIDPDHLRRILTAVLDNAITHGDGEIAVTAHARDGAVDIGVRDHGPGFADHFLPVAFDRFTRADTARGGRGSGLGLAIVAALTTTHGGHANATNHPDGGAELRITLPTPRPPFHEELPRITSSDTKDPNREHDTSDQ"
  MEAS_VALUE: "not soluble"

---

experiment: soluble on expression in E. coli; label from the status in PepcDB or PDB records

- CHAIN: "MGSDKIHHHHHHMSARLDAQIAFLKQADRLKSVERANVLLDLSRPENSAEHSWHLALWALVLSPFAAPDVDVDRAIRMLLLHDLVEIETGDHPIHEVTDWQAVERAERAAARKLFGLLPPDQAADFHTLWTEFDADETADARYAKMLDRCQPMFQVLCADTPRPDHVEVVRENLSSGRAAYLAEAFPEAHAHARALLERHPPVTGGFGDRLEFLAEADRLKTVLRASRLMDDSRFENSAEHSWHIMLYAWVLGEYAAAPVDIDRVLRMLLLHDLVEIDAGDNPIHGNVDHAAQEALEAAAAERLFGLLPPDQGAGLRAIWQEFETAQSADALFGKAVDRVQTPIANLENGGGSWVTYDVSLQQLVARVGTPVSRGAPGLWDWLFPQLSDCFTRLGLRL"
  soluble on expression in E. coli: "not soluble"
- CHAIN: "MTQVTVKELAQVVDTPVERLLLQMRDAGLPHTSAEQVVTDSEKQALLTHLKGSHGDRASEPRKITLQRKTTTTLKVGGSKTVSVEVRKKKTYVKRSPDEIEAERQRELEEQRAAEEAERLKAEEAAARQRAEEEARKAEEAARAKAAQEAAATAGAEPAVVADVAVAEPVAKPAAVEERKKEEPRRVPKRDEDDDRRDRKHTQHRPSVKEKEKVPAPRVAPRSTDEESDGYRRGGRGGKSKLKKRNQHGFQNPTGPIVREVNIGETITVAELAAQMSVKGAEVVKFMFKMGSPVTINQVLDQETAQLVAEELGHKVKLVSENALEEQLAESLKF"
  soluble on expression in E. coli: "not soluble"
- CHAIN: "MSLTAERQERLLARVEDAFGVISVYEVDDYRFLEFGDAIEQSCVFTADPSWLEYDYTRAMLVGALCHESPESALFLGLGAGTLTQACMKFLPLEDIEAIELRPDVPRLAMDYLGLDDDPRLYVRIGDALELLPTAEKADLLFVDLYTDHGPGVGHLAWNFLENCQQHLNPGGWLVINQWATDDGRPLGAALLRGLYHRHYWELPVKEGNVILLVPADLEQSLDLDGLRARAEALAPRLGYSLDGLIREIRPATEGHHHHHH"
  soluble on expression in E. coli: "soluble"
- CHAIN: "MVKNVAVIVDSSFYIPKEEQQKYNIYVIPTPIIFNGRIKYDSDWSSAAKFFKDMNSAKKMPSTSMASPADVLKAFEQVRADGYRQAILMTMASGISGFYNMAVNLANDYQELDVQVWDSKFTLMISGVQALLAAELSAQGITREEIMKKVALLRDSTRVFIVVDDISHLKRTGRLAGGAALVAGLLNIKPILVFNKASKIVAIGKERQMKRAWNWLLKQYAIDAPDFDRPIRVLFADANNRALTENWQADFHEKYPDVITDFIPIGPLIGVHTGEKAVGFVYMDDWKDIARHH"
  soluble on expression in E. coli: "not soluble"
- CHAIN: "MAGAGHKEDKSVTKKLIKKESKSDITIYFKQREESEDNNANPINISRSSEKDRVIMLVNGSNGSKKNLASELNVRRSVAQTGAGGVTQPKPLLNDINTKSHAFIQSRLEKMRKGL"
  soluble on expression in E. coli: "not soluble"
- CHAIN: "MGSDKIHHHHHHMDAPALPARWKVSAPELIAETFSSRIWKVVRDDGSPAVVKALKPFDDVADELRGEHFLAWRRGEGAVRLLGRDGHSMLLEYAGETLLTQVLDEQGDNAATAIAAELMTKLFSPSQHPYPPELQPLTERYTSLFRKAATDRGAGHASIYVEAAAIAERLLDNPHDIRPLHGDLHHDNILHGPRGWLVIDPKGVLGNPGFDAANMFYNPLDRDDLCLDPERIAHMAEVFAKTLGESPAAILDHAIAYGCLSAAWHHEDDNAVEENRELSIAKAIRAMRANF"
  soluble on expression in E. coli: "not soluble"
- CHAIN: "MADEPLHYGEDYHFIHATSAASGLGVSVLPDLYCHTIQIVNICLVGRPDDHAFVLVDAGMPGSADDIVSVVEDRFGSGSRPQAIVLTHGHFDHVGAIVELVKHWNVPVYAHPAELPYLTGKASYPEPDASVEGGFIAKISPFFPNEPIQLGNRVQPLPADGTVPHLPEFRWIHTPGHTPGHISLFRPRDAALIAGDAFVTVRQDSLYKVLTQQIEISGPPRYYTIDWRAARESVRKLAALFPSVAITGHGAPVAGKELREGLTKLARDFDRIATPDYGKYVH"
  soluble on expression in E. coli: "soluble"
- CHAIN: "MGSDKIHHHHHHMKQIYLLLLCGVLFACKKKESLPEVQKIGHSGMGLYGDYPINSFESLMQAFLLGADGVEIDVQMTRDGILVLLHDELLDNQTNGTGAVQERTWDEISNLAYDNIALGRYNIIRLDFLLENCGPHIDKLFYFDIKPNAYSTEHLYTLNRNLSTLITKFNLEDNSVLMYQNNAQFLHMLSLRTDLTIYSYSDFNTAKKNILQYKLNGWVASINDIDESKVAQMHEIGARVVGFSTFNKNDHLNLIHKGVDIIQTDNLKNLINLYQ"
  soluble on expression in E. coli: "not soluble"
- CHAIN: "FISSRANVDDLKSIENKSDFVATENMPNYVKGAFISMEDERFYKHHGFDIKGTTRALFSTISDRDVQGGSTITQQVVKNYYYDNERSFTRKIKELFVARKVEKQYSKNQILSFYMNNIYYGDNQYTVEGAANHYFGVTVDKNNSNMSQISVLQSAILASKVNAPSVYD"
  soluble on expression in E. coli: "not soluble"
- CHAIN: "MKAAPLIGISRHRLSTDGEGVTTLVAFHGCPLRCKYCLNPQSLHSEGIWKNYDCEQLYEEVRQDELYFLATNGGITFGGGEPCLQSDFIYEFRQLCGQEWQLSVETSLNVTQENIEKLVPVVDSYIIDIKDINNTIYQKYTGKNNEKVLHNLQYLIEHGKNEQIIVRTPVIPAYNTENDVDNSIRLLKEMGIIQFDRFTYKTPNNCQP"
  soluble on expression in E. coli: "not soluble"
- CHAIN: "SKNPEEAAEGKQRIHLRPGSLRGAAPAKLHLLPCDVLVSRPAPVDRFFTPAVRHDADGLQASFRGRGLRGEEVAVPPGFAGFVMVTEEKGEGLIGKLNFSGDAEDKADEAQEPLERDFDRLIGATGSFSHFTLWGLETVPGPDAKVHRALGWPSLAAAIHAQVPED"
  soluble on expression in E. coli: "soluble"
